target: PRMT8 (Homo sapiens); construct: residues 61-394, N- and C-terminal His tags, E. coli; assay: HotSpot [3H]SAM filter-binding methyltransferase assay; format: biochemical
Assay readout: IC50 (µM)

>  <Compound>
CC1(C)CCC(CN2CCN(c3ccc(C(=O)NS(=O)(=O)c4ccc(NCC5CCOCC5)c([N+](=O)[O-])c4)c(Oc4cnc5[nH]ccc5c4)c3)CC2)=C(c2ccc(Cl)cc2)C1 [ABT-199]

>  <Assay readout>
IC50

>  <Unit of measure>
µM

>  <Value reported>
34

$$$$

----------
target: MLL1 Complex (Homo sapiens); experiment: HotSpot [3H]SAM filter-binding methyltransferase assay; format: biochemical; parameters: gene KMT2A; five-member complex, His-tagged subunits, E. coli; ASH2L isoform of NM_001105214; with WD repeat-containing protein 5; Set1/Ash2 histone methyltransferase complex subunit ASH2; Protein dpy-30 homolog; settings: nucleosomes, […] SAM, pH […] MgCl2, […] DTT, […] °C, single experiment

>  <Compound smiles>
COc1cccc(-n2nc(C(=O)O)cc2-c2ccc(C3CCCCC3)c(Cl)c2)c1

>  <IC50 [µM]>
3.2

$$$$

----------
target: MLL4 Complex (Homo sapiens, UniProt Q9UMN6); test: biochemical; design: gene KMT2B
pIC50: −log10 of the molar value.
Assay readout: pIC50

>  <Compound smiles>
Nc1ncnc2c1ncn2[C@@H]1O[C@H](CSCC[C@H](N)C(=O)O)[C@@H](O)[C@H]1O

>  <Experimental system>
MLL4 Complex (Homo sapiens, UniProt Q9UMN6)

>  <Value reported>
5.60

$$$$

----------
biological target: NSD2 (Homo sapiens, UniProt O96028); construct: full length (residues 2-1365), N-terminal His tag, insect cell/baculovirus; experiment: HotSpot [3H]SAM filter-binding methyltransferase assay; type: biochemical; settings: nucleosomes […], […] SAM, pH […] DTT, […] °C; compound is redox-active
Assay readout: IC50

>  <Compound>
O=C1C(Cl)=C(NCCN2CCOCC2)C(=O)c2ncccc21 [DA3003-1]

>  <Assay readout>
IC50

>  <Value reported>
170 nM

$$$$

----------
target: SET7/9 (Homo sapiens, UniProt Q8WTS6); construct: gene SETD7; assay: biochemical
Sequence (Q8WTS6 whole entry): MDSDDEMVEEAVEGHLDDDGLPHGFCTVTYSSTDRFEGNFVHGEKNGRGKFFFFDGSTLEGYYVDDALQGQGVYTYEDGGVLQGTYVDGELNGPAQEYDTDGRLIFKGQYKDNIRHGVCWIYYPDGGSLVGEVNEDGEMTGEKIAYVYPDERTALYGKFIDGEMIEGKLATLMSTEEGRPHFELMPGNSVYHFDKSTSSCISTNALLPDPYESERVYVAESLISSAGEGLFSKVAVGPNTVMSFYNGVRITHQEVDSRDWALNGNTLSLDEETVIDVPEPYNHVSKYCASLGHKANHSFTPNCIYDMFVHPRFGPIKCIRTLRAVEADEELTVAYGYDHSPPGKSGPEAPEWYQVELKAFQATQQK
pIC50: −log10 of the molar value.
Assay readout: pIC50

>  <Compound>
COc1cccc(-n2nc(C(=O)O)cc2-c2ccc(C3CCCCC3)c(Cl)c2)c1 [TC LPA5 4]

>  <Value reported>
4.28

$$$$

----------
target: UniProt:Q8NB12; assay: biochemical
pIC50: −log10 of the molar value.
Assay readout: pIC50

>  <Compound smiles>
COc1cccc(-n2nc(C(=O)O)cc2-c2ccc(C3CCCCC3)c(Cl)c2)c1

>  <Experimental system>
UniProt:Q8NB12

>  <Assay readout>
pIC50

>  <Value reported>
4.68

$$$$

----------
target: SET8 (Homo sapiens, UniProt Q9NQR1); construct: gene KMT5A; test: biochemical
Sequence (Q9NQR1 whole entry): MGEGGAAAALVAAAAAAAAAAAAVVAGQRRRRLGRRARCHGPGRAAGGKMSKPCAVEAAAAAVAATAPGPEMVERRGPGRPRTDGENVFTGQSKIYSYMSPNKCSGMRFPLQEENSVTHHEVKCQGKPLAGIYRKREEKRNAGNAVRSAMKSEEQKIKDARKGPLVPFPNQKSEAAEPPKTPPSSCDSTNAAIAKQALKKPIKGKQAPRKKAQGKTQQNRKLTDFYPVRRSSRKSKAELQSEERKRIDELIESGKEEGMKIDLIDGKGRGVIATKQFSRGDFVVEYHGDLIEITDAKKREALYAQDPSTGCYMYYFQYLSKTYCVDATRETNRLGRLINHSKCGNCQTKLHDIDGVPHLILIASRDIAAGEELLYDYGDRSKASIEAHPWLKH

>  <Compound smiles>
CC1(C)CCC(CN2CCN(c3ccc(C(=O)NS(=O)(=O)c4ccc(NCC5CCOCC5)c([N+](=O)[O-])c4)c(Oc4cnc5[nH]ccc5c4)c3)CC2)=C(c2ccc(Cl)cc2)C1

>  <IC50, µM>
5.3

$$$$
>  <Compound smiles>
COc1cccc(-n2nc(C(=O)O)cc2-c2ccc(C3CCCCC3)c(Cl)c2)c1

>  <IC50, µM>
44

$$$$

----------
target: PRMT3 (Homo sapiens); experiment: HotSpot [3H]SAM filter-binding methyltransferase assay; type: biochemical; parameters: residues 2-531, N-terminal His tag, E. coli; settings: histone H4, […] SAM, pH […] MgCl2, […] DTT, […] °C, single experiment
Assay readout: IC50

>  <Compound smiles>
COc1cccc(-n2nc(C(=O)O)cc2-c2ccc(C3CCCCC3)c(Cl)c2)c1

>  <Experimental system>
PRMT3 (Homo sapiens)

>  <Value reported>
5.7 µM

$$$$

----------
molecular target: PRMT5 (Homo sapiens); test: biochemical
Sequence (O14744 whole entry): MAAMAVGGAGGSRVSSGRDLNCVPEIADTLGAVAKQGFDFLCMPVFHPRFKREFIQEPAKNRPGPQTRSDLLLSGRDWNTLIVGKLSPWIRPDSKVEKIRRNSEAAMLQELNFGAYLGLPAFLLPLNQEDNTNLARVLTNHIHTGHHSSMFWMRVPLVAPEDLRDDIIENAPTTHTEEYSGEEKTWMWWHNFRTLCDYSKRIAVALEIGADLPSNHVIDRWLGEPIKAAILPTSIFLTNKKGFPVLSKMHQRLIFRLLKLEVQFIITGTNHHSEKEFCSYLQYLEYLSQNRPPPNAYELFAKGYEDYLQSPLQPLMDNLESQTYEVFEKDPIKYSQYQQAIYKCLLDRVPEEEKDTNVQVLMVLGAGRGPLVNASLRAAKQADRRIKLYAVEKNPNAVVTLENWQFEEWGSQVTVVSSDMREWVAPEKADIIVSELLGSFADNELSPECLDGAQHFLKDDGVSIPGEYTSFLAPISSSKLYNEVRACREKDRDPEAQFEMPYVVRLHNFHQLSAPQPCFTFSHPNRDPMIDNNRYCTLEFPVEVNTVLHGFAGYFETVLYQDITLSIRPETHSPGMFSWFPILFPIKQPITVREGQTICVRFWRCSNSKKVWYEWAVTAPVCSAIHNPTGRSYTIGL
pIC50: −log10 of the molar value.

>  <Compound smiles>
COc1cccc(-n2nc(C(=O)O)cc2-c2ccc(C3CCCCC3)c(Cl)c2)c1

>  <pIC50>
4.77

$$$$

----------
biological target: MLL2 Complex (Homo sapiens); test: biochemical; parameters: gene KMT2D

>  <Molecule>
Nc1ncnc2c1ncn2[C@@H]1O[C@H](CSCC[C@H](N)C(=O)O)[C@@H](O)[C@H]1O [SAH]

>  <IC50, µM>
27

$$$$

----------
target: ASH1L (Homo sapiens, UniProt Q9NR48); conditions: inhibitor; read-out: Control IC50 (µM), Chaetocin
Assay readout: IC50

>  <Molecule>
CN1C(=O)[C@@]23C[C@]4([C@]56C[C@@]78SS[C@@](CO)(C(=O)N7[C@H]5Nc5ccccc56)N(C)C8=O)c5ccccc5N[C@@H]4N2C(=O)[C@]1(CO)SS3 [Chaetocin]

>  <Value reported>
0.1 µM

$$$$

----------
biological target: NSD1 (Homo sapiens); construct: residues 1538-2696, N-terminal His tag, insect cell/baculovirus; assay: HotSpot [3H]SAM filter-binding methyltransferase assay; format: biochemical; conditions: nucleosomes, […] SAM, pH […] MgCl2, […] DTT, […] °C, single experiment
Sequence (Q96L73 1538-2696): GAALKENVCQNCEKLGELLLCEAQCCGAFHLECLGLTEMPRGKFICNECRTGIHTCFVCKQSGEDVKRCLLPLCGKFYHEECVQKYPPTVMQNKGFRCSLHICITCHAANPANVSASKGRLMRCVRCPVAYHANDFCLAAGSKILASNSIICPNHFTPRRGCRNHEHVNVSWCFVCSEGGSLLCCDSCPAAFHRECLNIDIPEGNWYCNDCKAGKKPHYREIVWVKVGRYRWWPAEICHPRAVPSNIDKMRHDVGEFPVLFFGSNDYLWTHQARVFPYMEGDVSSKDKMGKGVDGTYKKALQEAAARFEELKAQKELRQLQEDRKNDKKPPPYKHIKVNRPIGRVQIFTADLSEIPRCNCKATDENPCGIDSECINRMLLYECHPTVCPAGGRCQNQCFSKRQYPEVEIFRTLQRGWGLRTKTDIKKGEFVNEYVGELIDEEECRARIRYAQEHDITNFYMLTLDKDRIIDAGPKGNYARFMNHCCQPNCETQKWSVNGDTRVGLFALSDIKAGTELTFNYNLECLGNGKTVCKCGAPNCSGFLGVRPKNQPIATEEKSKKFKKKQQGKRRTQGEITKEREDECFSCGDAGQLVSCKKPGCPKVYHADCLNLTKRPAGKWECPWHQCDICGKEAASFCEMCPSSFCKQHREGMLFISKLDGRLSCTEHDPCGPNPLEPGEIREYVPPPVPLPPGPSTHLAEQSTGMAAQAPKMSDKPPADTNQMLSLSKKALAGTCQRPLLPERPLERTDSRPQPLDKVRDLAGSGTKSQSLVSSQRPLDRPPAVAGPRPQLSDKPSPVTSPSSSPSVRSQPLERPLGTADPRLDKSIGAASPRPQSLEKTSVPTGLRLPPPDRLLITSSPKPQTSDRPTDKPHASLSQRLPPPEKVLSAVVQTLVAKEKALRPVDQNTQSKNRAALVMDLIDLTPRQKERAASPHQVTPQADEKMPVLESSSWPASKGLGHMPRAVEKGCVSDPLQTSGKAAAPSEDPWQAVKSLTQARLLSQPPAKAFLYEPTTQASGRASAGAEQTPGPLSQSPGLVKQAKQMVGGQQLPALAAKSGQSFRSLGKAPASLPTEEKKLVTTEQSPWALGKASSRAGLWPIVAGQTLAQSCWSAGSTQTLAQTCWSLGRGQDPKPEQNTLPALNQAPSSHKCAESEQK
pIC50: −log10 of the molar value.
# reported pIC50; entries follow

>  <Compound>
O=C1C(Cl)=C(NCCN2CCOCC2)C(=O)c2ncccc21 [DA3003-1]

>  <pIC50>
6.96

$$$$
>  <Compound>
CC1(C)CCC(CN2CCN(c3ccc(C(=O)NS(=O)(=O)c4ccc(NCC5CCOCC5)c([N+](=O)[O-])c4)c(Oc4cnc5[nH]ccc5c4)c3)CC2)=C(c2ccc(Cl)cc2)C1 [ABT-199]

>  <pIC50>
5.62

$$$$
>  <Compound>
COc1cccc(-n2nc(C(=O)O)cc2-c2ccc(C3CCCCC3)c(Cl)c2)c1 [TC LPA5 4]

>  <pIC50>
4.92

$$$$

----------
target: NSD2 SET domain (Homo sapiens, UniProt O96028); construct: SET domain, residues 934-1241, N-terminal His tag, E. coli; assay: SPR Biacore 8K, single-cycle kinetics, […] model; format: binding
Sequence (O96028 934-1241): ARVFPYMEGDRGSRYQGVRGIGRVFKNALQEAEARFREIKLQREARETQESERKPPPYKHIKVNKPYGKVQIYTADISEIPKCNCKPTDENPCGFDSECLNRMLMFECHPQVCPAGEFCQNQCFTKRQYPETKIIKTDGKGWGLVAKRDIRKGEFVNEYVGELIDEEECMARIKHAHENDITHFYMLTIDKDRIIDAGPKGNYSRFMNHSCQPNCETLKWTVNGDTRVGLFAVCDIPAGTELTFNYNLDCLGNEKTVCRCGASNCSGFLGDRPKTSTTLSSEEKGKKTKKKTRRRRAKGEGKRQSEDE
# reported Kd; entries follow

>  <Compound>
CC1(C)CCC(CN2CCN(c3ccc(C(=O)NS(=O)(=O)c4ccc(NCC5CCOCC5)c([N+](=O)[O-])c4)c(Oc4cnc5[nH]ccc5c4)c3)CC2)=C(c2ccc(Cl)cc2)C1

>  <Kd / µM>
8.3

$$$$
>  <Compound>
C[S+](CC[C@H](N)C(=O)O)C[C@H]1O[C@@H](n2cnc3c(N)ncnc32)[C@H](O)[C@@H]1O (some centres unmarked)

>  <Kd / µM>
4.2

$$$$

----------
molecular target: PRMT3 (Homo sapiens, UniProt O60678); assay: biochemical
Sequence (O60678 2-531): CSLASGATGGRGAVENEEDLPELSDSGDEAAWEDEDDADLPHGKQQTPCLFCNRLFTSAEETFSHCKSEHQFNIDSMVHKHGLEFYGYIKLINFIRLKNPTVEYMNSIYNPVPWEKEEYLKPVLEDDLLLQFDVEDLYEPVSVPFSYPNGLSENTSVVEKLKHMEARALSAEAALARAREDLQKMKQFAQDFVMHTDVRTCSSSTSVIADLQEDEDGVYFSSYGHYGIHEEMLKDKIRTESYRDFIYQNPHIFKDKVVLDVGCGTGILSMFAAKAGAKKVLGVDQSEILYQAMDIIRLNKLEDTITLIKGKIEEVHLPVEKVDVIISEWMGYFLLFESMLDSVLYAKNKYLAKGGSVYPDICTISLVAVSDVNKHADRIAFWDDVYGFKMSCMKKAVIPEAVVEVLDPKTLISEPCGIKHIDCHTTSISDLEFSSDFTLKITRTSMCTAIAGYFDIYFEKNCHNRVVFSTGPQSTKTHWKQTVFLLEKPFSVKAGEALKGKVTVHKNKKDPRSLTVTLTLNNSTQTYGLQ
pIC50: −log10 of the molar value.

>  <Compound smiles>
Nc1ncnc2c1ncn2[C@@H]1O[C@H](CSCC[C@H](N)C(=O)O)[C@@H](O)[C@H]1O

>  <Experimental system>
PRMT3 (Homo sapiens, UniProt O60678)

>  <pIC50>
5.64

$$$$

----------
target: SET7/9 (Homo sapiens); construct: gene SETD7; assay: biochemical
Assay readout: IC50 (µM)

>  <Compound smiles>
Nc1ncnc2c1ncn2[C@@H]1O[C@H](CSCC[C@H](N)C(=O)O)[C@@H](O)[C@H]1O

>  <Unit of measure>
µM

>  <Value reported>
83

$$$$

----------
# reported pIC50; entries follow
target: ASH1L (Homo sapiens, UniProt Q9NR48); test: HotSpot [3H]SAM filter-binding methyltransferase assay; assay type: biochemical; parameters: residues 2046-2330, N-terminal His tag, E. coli
pIC50: −log10 of the molar value.

>  <Molecule>
O=C1C(Cl)=C(NCCN2CCOCC2)C(=O)c2ncccc21 [DA3003-1]

>  <pIC50>
6.70

$$$$
>  <Molecule>
CC1(C)CCC(CN2CCN(c3ccc(C(=O)NS(=O)(=O)c4ccc(NCC5CCOCC5)c([N+](=O)[O-])c4)c(Oc4cnc5[nH]ccc5c4)c3)CC2)=C(c2ccc(Cl)cc2)C1 [ABT-199]

>  <pIC50>
5.48

$$$$

----------
biological target: EZH2 Complex (Homo sapiens, UniProt Q15910, Y641F); construct: five-member complex, Flag-EED, other subunits His-tagged, insect cells; with Zinc finger protein AEBP2; Polycomb protein EED; Polycomb protein SUZ12; assay: HotSpot [3H]SAM filter-binding methyltransferase assay; type: biochemical; settings: core histone, […] SAM, pH […] EDTA, […] DTT, […] °C, single experiment
Assay readout: IC50 (µM)

>  <Compound>
COc1cccc(-n2nc(C(=O)O)cc2-c2ccc(C3CCCCC3)c(Cl)c2)c1 [TC LPA5 4]

>  <Unit of measure>
µM

>  <Value reported>
31

$$$$

----------
target: MLL2 Complex (Homo sapiens, UniProt O14686); assay: HotSpot [3H]SAM filter-binding methyltransferase assay; assay type: biochemical; parameters: gene KMT2D; complex assembled as MLL1; MLL2 here is KMT2D (NM_003482), His tag, E. coli; with WD repeat-containing protein 5; Set1/Ash2 histone methyltransferase complex subunit ASH2; Protein dpy-30 homolog; conditions: nucleosomes, […] SAM, pH […] MgCl2, […] DTT, […] °C, single experiment
Sequence (O14686 5319-5537): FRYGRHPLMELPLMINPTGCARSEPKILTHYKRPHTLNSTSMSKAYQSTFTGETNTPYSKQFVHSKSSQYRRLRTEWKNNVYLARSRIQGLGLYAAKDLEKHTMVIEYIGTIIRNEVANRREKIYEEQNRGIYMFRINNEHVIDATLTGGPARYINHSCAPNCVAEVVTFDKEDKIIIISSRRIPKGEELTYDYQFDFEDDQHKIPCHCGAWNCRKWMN
Sequence (Q15291 whole entry, further chain): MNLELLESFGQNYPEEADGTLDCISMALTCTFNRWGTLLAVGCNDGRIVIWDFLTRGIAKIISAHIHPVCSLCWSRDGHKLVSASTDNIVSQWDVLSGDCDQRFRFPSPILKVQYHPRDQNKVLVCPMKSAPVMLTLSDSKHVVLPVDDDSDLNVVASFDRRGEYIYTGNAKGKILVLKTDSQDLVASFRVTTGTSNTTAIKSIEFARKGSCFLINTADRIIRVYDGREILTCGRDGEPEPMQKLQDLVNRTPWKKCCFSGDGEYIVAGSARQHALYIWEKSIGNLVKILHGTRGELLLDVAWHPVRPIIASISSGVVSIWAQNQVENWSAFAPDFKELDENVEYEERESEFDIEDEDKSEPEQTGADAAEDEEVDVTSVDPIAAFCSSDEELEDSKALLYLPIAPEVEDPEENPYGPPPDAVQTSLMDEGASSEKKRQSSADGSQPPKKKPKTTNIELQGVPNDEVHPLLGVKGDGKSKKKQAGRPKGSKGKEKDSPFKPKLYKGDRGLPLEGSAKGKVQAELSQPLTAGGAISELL
Sequence (Q9UBL3 96-628, further chain): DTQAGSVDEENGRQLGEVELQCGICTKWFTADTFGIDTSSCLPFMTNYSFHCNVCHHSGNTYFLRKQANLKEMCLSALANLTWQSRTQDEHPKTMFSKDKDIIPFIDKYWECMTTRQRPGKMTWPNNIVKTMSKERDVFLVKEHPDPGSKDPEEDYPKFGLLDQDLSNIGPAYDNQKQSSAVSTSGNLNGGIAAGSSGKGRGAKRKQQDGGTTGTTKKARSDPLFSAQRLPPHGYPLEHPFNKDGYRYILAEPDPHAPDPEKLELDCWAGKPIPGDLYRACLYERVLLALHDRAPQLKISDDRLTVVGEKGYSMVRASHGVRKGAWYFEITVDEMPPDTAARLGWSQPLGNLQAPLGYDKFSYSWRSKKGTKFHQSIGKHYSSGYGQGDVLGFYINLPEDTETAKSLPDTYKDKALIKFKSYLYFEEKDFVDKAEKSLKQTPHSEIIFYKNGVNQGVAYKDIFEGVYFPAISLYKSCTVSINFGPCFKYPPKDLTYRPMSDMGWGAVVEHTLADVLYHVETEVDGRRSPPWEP
Sequence (Q9C005 whole entry, further chain): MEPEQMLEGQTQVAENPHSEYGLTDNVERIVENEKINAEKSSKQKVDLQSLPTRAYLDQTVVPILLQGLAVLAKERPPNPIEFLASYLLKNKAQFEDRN
pIC50: −log10 of the molar value.

>  <Compound>
COc1cccc(-n2nc(C(=O)O)cc2-c2ccc(C3CCCCC3)c(Cl)c2)c1 [TC LPA5 4]

>  <pIC50>
4.74

$$$$
